Biological target: Melanocortin receptor 3 (Homo sapiens)
Sequence (P41968 whole entry): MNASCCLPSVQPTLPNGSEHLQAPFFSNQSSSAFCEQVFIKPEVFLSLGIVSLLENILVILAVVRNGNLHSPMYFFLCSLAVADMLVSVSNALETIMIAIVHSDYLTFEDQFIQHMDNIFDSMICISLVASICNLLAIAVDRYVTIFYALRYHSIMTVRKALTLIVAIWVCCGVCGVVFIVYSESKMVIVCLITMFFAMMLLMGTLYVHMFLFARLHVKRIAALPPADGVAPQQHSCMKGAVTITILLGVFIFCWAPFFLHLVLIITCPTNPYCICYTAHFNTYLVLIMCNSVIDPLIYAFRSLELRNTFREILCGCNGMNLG
Test: Displacement of [125I]NDP-alphaMSH from human MC3 receptor expressed in HEK293 cells relative to MT2
Format: cell-based
parameter: Activity (%)

[[record]]
compound = "CC(=O)N[C@H]1CCC(=O)NCCC[C@@H](C(=O)N[C@@H](Cc2c[nH]c3ccccc23)C(N)=O)N(CCCCN=C(N)N)C(=O)[C@@H](Cc2ccccc2)NC(=O)[C@H](Cc2c[nH]cn2)NC1=O"
parameter = "Activity"
result_number = 50

[[record]]
compound = "CC(=O)N[C@H]1CSSC[C@H](C(=O)N[C@@H](Cc2c[nH]c3ccccc23)C(N)=O)N(CCCCN=C(N)N)C(=O)[C@@H](Cc2ccccc2)NC(=O)[C@H](Cc2c[nH]cn2)NC1=O"
parameter = "Activity"
result_number = 0

[[record]]
compound = "CC(=O)N[C@H]1CCC(=O)NCCC(C(=O)N[C@@H](Cc2c[nH]c3ccccc23)C(N)=O)N(CCCCN=C(N)N)C(=O)[C@@H](Cc2ccccc2)NC(=O)[C@H](Cc2c[nH]cn2)NC1=O (stereo partly drawn)"
parameter = "Activity"
result_number = 50

[[record]]
compound = "CC(=O)N[C@H]1CSSC[C@@H](C(=O)N(CCCCN=C(N)N)[C@@H](Cc2c[nH]c3ccccc23)C(N)=O)NC(=O)[C@@H](Cc2ccccc2)NC(=O)[C@H](Cc2c[nH]cn2)NC1=O"
parameter = "Activity"
result_number = 50

[[record]]
compound = "CC(=O)N[C@H]1CSSC[C@@H](C(=O)N(CCCCN=C(N)N)C(Cc2c[nH]c3ccccc23)C(N)=O)NC(=O)[C@@H](Cc2ccc3ccccc3c2)NC(=O)[C@H](Cc2c[nH]cn2)NC1=O (stereo in doubt)"
parameter = "Activity"
result_number = 0


P. CC(=O)N[C@H]1CSSC[C@@H](C(=O)N[C@@H](Cc2c[nH]c3ccccc23)C(N)=O)N(CCCCN=C(N)N)C(=O)[C@@H](Cc2ccccc2)NC(=O)[C@H](Cc2c[nH]cn2)NC1=O
Q. CC(=O)N[C@H]1CCC(=O)NCCC[C@@H](C(=O)N[C@@H](Cc2c[nH]c3ccccc23)C(N)=O)N(CCCCN=C(N)N)C(=O)[C@@H](Cc2ccc3ccccc3c2)NC(=O)[C@H](Cc2c[nH]cn2)NC1=O
*Q* From the recorded data, which exceeds the other in Activity: P or Q ? // respond with label for picked entry
*A* Q
(Q: 50%, P: 0%)
